Recorded values, source the supplement of paper PMC3545927.

biological target: furin, P09958; experiment: furin cleavage Z-score vs untreated control; higher = more cleavage, active = 3.5 or more, inactive = 1 or less, 8 variable residues between constant flanks; conditions: 7.5 min;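 also: purified furin at 1:10 enzyme:substrate in 50 mM HEPES pH 7.5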
Sequence (P09958 whole entry): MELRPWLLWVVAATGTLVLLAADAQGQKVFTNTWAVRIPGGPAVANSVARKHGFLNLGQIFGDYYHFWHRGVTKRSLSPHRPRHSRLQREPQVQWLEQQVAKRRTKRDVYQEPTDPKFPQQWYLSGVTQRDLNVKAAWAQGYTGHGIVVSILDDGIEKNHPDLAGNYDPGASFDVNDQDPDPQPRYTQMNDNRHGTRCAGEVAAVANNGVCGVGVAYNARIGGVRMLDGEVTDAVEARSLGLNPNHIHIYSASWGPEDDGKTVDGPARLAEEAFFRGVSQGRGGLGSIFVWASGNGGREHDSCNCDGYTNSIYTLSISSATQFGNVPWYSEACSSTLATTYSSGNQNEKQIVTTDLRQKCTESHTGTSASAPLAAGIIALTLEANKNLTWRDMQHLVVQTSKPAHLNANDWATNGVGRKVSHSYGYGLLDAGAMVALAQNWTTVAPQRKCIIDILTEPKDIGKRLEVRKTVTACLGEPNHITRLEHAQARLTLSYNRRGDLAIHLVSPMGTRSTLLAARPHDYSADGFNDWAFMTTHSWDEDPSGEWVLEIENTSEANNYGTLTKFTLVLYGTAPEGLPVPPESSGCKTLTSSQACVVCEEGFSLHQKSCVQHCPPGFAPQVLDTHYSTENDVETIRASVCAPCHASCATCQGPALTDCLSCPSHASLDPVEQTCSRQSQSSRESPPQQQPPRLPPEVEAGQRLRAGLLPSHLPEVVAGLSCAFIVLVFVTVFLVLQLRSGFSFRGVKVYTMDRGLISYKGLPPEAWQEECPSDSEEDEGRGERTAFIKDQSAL
Some of the results follow. How many sequences the whole screen found active is unknown.
Assign 1 (yes) to entries whose furin cleavage Z-score meets or exceeds -0.5; assign 0 (no) to the rest.

# count of solved cases: 5
>  <sequence-input>
CADPSHITAEAGNASASA [HC1249]

>  <classification>
1 (yes)

$$$$
>  <sequence-input>
CANPQRFDRIAGNASASA [FS-1039]

>  <classification>
0 (no)

$$$$
>  <sequence-input>
CAYRLWHYPCAGNASASA [HC467]

>  <classification>
1 (yes)

$$$$
>  <sequence-input>
CAAFKIMSGEAGNASASA [HC1093]

>  <classification>
1 (yes)

$$$$
>  <sequence-input>
CAAGRRSEAEAGNASASA [FS-1877]

>  <classification>
0 (no)

$$$$

# input Hi, just wondering whether CAYGMWPLLLAGNASASA [HC556] shows furin cleavage Z-score of -0.5 or higher.
# output 1 (yes)
